Each recorded value in this set is attributed to ChEMBL document CHEMBL5506005.

biological target: Methionine--tRNA ligase (Staphylococcus aureus (strain Mu50 / ATCC 700699)); experiment: Binding affinity to Staphylococcus aureus MetRS expressed in Escherichia coli BL21(DE3) cells assessed as dissociation constant by ITC analysis
measured.parameter: Kd (µM)

[a] [H]/N=C(\N/C(=N/[H])NCCCCCCNC(=N)NC(=N)Nc1ccc(Cl)cc1)Nc1ccc(Cl)cc1
[b] [H]/N=C(/NCCCCN/C(=N/[H])N/C(=N/[H])Nc1ccc(Cl)cc1)N/C(=N/[H])Nc1ccc(Cl)cc1
[in] Kindly identify which of a and b has the larger recorded Kd value. Mark your answer with the label of the selected entry.
[out] a
(a: 10.2 µM, b: 4.92 µM)

* * *

molecular target: Methionine--tRNA ligase (Enterococcus faecalis); assay: Binding affinity to Enterococcus faecalis type 1 MetRS expressed in Escherichia coli BL21(DE3) cells assessed as dissociation constant by ITC analysis
pKd: −log10 of the molar value.
measured.parameter: pKd

[P] [H]/N=C(/NCCCCN/C(=N/[H])N/C(=N/[H])Nc1ccc(Cl)cc1)N/C(=N/[H])Nc1ccc(Cl)cc1
[Q] [H]/N=C(\N/C(=N/[H])NCCCCCCNC(=N)NC(=N)Nc1ccc(Cl)cc1)Nc1ccc(Cl)cc1 [CHLORHEXIDINE]
[in] Given P and Q , report the one with the higher recorded pKd. Select an item and report its label.
[out] P

* * *

target: Methionine--tRNA ligase (Staphylococcus aureus (strain Mu50 / ATCC 700699)); experiment: Inhibition of Staphylococcus aureus MetRS expressed in Escherichia coli BL21(DE3) cells measured after 2.5 hrs in presence of ATP by pre-transfer editing assay
measured.parameter: IC50 (µM)

[a] [H]/N=C(\N/C(=N/[H])NCCCCCCNC(=N)NC(=N)Nc1ccc(Cl)cc1)Nc1ccc(Cl)cc1 [CHLORHEXIDINE]
[b] [H]/N=C(/NCCCCN/C(=N/[H])N/C(=N/[H])Nc1ccc(Cl)cc1)N/C(=N/[H])Nc1ccc(Cl)cc1
[in] Which entry shows the lesser value of IC50 here, a or b ? Reply briefly: the label of your chosen item.
[out] b

* * *

target: Methionine--tRNA ligase (Staphylococcus aureus (strain Mu50 / ATCC 700699)) (UniProt P67578); experiment: Binding affinity to Staphylococcus aureus MetRS expressed in Escherichia coli BL21(DE3) cells assessed as change in melting temperature at 100 uM incubated for 10 mins followed by heat treatment by SYPRO orange dye based TSA (reference value: 53.7 degreeC)
measured.parameter: ΔTm (°C)

[in] Tell me the measured ΔTm of "C=C(F)c1sc(CNCCCNc2cc(=O)c3ccccc3[nH]2)c(C)c1Br" , please.
[out] 16.2

[in] Now the same for "N=C(NCCCCCCNC(=N)NC(=N)Nc1ccc(Cl)cc1)NC(=N)Nc1ccc(Cl)cc1"
[out] -3.4

[1] COc1cc(Nc2c(C#N)cnc3cc(OCCCN4CCN(C)CC4)c(OC)cc23)c(Cl)cc1Cl
[2] CCN(CC)CCCC(C)Nc1ccnc2cc(Cl)ccc12 (centres undefined)
[in] Among 1 and 2 , whose measured ΔTm is the smaller figure? // return label of chosen record
[out] 2
(2: -0.1 °C, 1: 0.5 °C)

* * *

target: Methionine--tRNA ligase (Staphylococcus aureus (strain Mu50 / ATCC 700699), UniProt P67578); test: Binding affinity to Staphylococcus aureus MetRS expressed in Escherichia coli BL21(DE3) cells assessed as dissociation constant in presence of 500 uM ATP by ITC analysis
measured.parameter: Kd (nM)
The reply should be a number in nM, with the unit left off.

[in] Query: Kd; subject: "[H]/N=C(\N/C(=N/[H])NCCCCCCNC(=N)NC(=N)Nc1ccc(Cl)cc1)Nc1ccc(Cl)cc1"
[out] 593

* * *

target: Methionine--tRNA ligase (Staphylococcus aureus (strain Mu50 / ATCC 700699)); assay: Binding affinity to Staphylococcus aureus MetRS expressed in Escherichia coli BL21(DE3) cells assessed as dissociation constant in presence of 1 mM AMP by ITC analysis
measured.parameter: Kd (nM)
State the answer as a number, implicitly in nM.

[in] Which Kd reading was recorded for the compound "[H]/N=C(\N/C(=N/[H])NCCCCCCNC(=N)NC(=N)Nc1ccc(Cl)cc1)Nc1ccc(Cl)cc1" ?
[out] 6

* * *

biological target: Methionine--tRNA ligase (Staphylococcus aureus (strain Mu50 / ATCC 700699), UniProt P67578); assay: Binding affinity to Staphylococcus aureus MetRS expressed in Escherichia coli BL21(DE3) cells assessed as dissociation constant in presence of 1 mM ATP by ITC analysis
measured.parameter: Kd (nM)

[in] Query: Kd; subject: "[H]/N=C(/NCCCCN/C(=N/[H])N/C(=N/[H])Nc1ccc(Cl)cc1)N/C(=N/[H])Nc1ccc(Cl)cc1"
[out] 452

[in] Subsequent entry: "[H]/N=C(\N/C(=N/[H])NCCCCCCNC(=N)NC(=N)Nc1ccc(Cl)cc1)Nc1ccc(Cl)cc1"
[out] 450

* * *

target: Methionine--tRNA ligase (Staphylococcus aureus (strain Mu50 / ATCC 700699), UniProt P67578); test: Binding affinity to Staphylococcus aureus MetRS expressed in Escherichia coli BL21(DE3) cells assessed as dissociation constant in presence of 20 uM ATP by ITC analysis
pKd: −log10 of the molar value.
measured.parameter: pKd

[a] [H]/N=C(\N/C(=N/[H])NCCCCCCNC(=N)NC(=N)Nc1ccc(Cl)cc1)Nc1ccc(Cl)cc1 [CHLORHEXIDINE]
[b] [H]/N=C(/NCCCCN/C(=N/[H])N/C(=N/[H])Nc1ccc(Cl)cc1)N/C(=N/[H])Nc1ccc(Cl)cc1
[in] For the two items a and b , which reports the higher pKd value? Please reply using the label of the selected record.
[out] b
(b: 5.86, a: 5.51)

* * *

molecular target: Methionine--tRNA ligase (Staphylococcus aureus (strain Mu50 / ATCC 700699)); test: Binding affinity to Staphylococcus aureus MetRS expressed in Escherichia coli BL21(DE3) cells assessed as dissociation constant in presence of 1 mM ADP by ITC analysis
measured.parameter: pKd
Please express pKd as -log10 of the molar concentration.

[in] Quick check: pKd of [H]/N=C(\N/C(=N/[H])NCCCCCCNC(=N)NC(=N)Nc1ccc(Cl)cc1)Nc1ccc(Cl)cc1 [CHLORHEXIDINE] ?
[out] 5.72

* * *

target: Methionine--tRNA ligase (Enterococcus faecalis, UniProt A0A3N3ZFK4)
Sequence (A0A3N3ZFK4 whole entry): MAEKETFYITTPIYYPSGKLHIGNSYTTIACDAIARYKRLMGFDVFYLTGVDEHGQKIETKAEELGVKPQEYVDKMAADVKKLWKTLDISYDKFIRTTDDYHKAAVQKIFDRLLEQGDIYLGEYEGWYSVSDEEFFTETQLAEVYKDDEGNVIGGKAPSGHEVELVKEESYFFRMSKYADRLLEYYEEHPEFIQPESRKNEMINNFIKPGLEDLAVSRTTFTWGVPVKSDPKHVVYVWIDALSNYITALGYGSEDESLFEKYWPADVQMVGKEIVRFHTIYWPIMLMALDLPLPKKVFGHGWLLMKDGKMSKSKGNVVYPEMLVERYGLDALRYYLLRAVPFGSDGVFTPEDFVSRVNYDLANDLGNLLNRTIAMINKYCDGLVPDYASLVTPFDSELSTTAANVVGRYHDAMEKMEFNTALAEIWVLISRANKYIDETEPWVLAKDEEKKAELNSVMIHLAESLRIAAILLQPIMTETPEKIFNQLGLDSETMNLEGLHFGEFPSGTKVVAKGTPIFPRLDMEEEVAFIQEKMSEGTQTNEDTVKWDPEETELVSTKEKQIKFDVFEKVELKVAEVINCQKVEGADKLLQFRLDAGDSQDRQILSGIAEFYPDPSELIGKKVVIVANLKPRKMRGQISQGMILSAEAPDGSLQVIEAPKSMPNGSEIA
measured.parameter: IC50 (µM)
State the answer as a number, implicitly in µM.

[in] For the compound shown here, "[H]/N=C(/NCCCCN/C(=N/[H])N/C(=N/[H])Nc1ccc(Cl)cc1)N/C(=N/[H])Nc1ccc(Cl)cc1" , give the reported IC50.
[out] 16.1

* * *

target: Methionine--tRNA ligase (Staphylococcus aureus (strain Mu50 / ATCC 700699)) (UniProt P67578); assay: Inhibition of Staphylococcus aureus MetRS expressed in Escherichia coli BL21(DE3) cells at 100 uM measured after 2.5 hrs in presence of ATP by pre-transfer editing assay relative to control
# inhibition listing for each entry below
Field format: number, assumed %, no unit text.

[in] Looking for the measured inhibition of N=C(NCCCCCCNC(=N)NC(=N)Nc1ccc(Cl)cc1)NC(=N)Nc1ccc(Cl)cc1 [CHLORHEXIDINE] , can you help?
[out] 78.3

New cases:
[in] Which value of inhibition has been reported for "COc1cc(Nc2c(C#N)cnc3cc(OCCCN4CCN(C)CC4)c(OC)cc23)c(Cl)cc1Cl" in the records?
[out] 32.7

* * *

biological target: Methionine--tRNA ligase (Staphylococcus aureus (strain Mu50 / ATCC 700699)); assay: Binding affinity to Staphylococcus aureus MetRS expressed in Escherichia coli BL21(DE3) cells assessed as dissociation constant in presence of ATP/L-Met by ITC analysis
measured.parameter: pKd
Kindly note that pKd refers to -log10 of the concentration in mol/L and answer with the value alone.

[in] Which pKd reading was recorded for the compound "[H]/N=C(\N/C(=N/[H])NCCCCCCNC(=N)NC(=N)Nc1ccc(Cl)cc1)Nc1ccc(Cl)cc1" ?
[out] 5.38

* * *

biological target: Methionine--tRNA ligase (Staphylococcus aureus (strain Mu50 / ATCC 700699)); experiment: Binding affinity to Staphylococcus aureus MetRS expressed in Escherichia coli BL21(DE3) cells assessed as change in melting temperature at 100 uM incubated for 10 mins followed by heat treatment in presence of 2 mM ATP by SYPRO orange dye based TSA (reference value: 56.4 degreeC)
measured.parameter: ΔTm (°C)

[in] What value of measured ΔTm is listed for "C=C(F)c1sc(CNCCCNc2cc(=O)c3ccccc3[nH]2)c(C)c1Br" ?
[out] 20.3

[in] What do you have for "N=C(NCCCCCCNC(=N)NC(=N)Nc1ccc(Cl)cc1)NC(=N)Nc1ccc(Cl)cc1" ?
[out] 7

[a] COc1cc(Nc2c(C#N)cnc3cc(OCCCN4CCN(C)CC4)c(OC)cc23)c(Cl)cc1Cl
[b] CCN(CC)CCCC(C)Nc1ccnc2cc(Cl)ccc12 (centres undefined)
[in] Among a and b , which shows a numerically higher ΔTm result? Identify your pick by its label.
[out] a
(a: 2.1 °C, b: 1.1 °C)
